experiment: in vitro; format: in vitro ADME; conditions: rat, microsomes, pH 7.4
REPORTED METRIC: half-life (h)
Give a bare numeral; the unit h is implied.

Inquiry: Answer with the recorded half-life for the molecule listed here: CCCCN1CCN(C(C)C(=O)Nc2c(C)csc2C(=O)OC)CC1 (stereo not shown)
Reply text: 1.03

* * *

biological target: NaV1.5 (Homo sapiens, UniProt Q14524); experiment: Cell membrane chromatography; type: binding; conditions: capacity factor k′; reflects potential cardiac toxicity; k′ < 0 labeled as 0
Sequence (Q14524 whole entry): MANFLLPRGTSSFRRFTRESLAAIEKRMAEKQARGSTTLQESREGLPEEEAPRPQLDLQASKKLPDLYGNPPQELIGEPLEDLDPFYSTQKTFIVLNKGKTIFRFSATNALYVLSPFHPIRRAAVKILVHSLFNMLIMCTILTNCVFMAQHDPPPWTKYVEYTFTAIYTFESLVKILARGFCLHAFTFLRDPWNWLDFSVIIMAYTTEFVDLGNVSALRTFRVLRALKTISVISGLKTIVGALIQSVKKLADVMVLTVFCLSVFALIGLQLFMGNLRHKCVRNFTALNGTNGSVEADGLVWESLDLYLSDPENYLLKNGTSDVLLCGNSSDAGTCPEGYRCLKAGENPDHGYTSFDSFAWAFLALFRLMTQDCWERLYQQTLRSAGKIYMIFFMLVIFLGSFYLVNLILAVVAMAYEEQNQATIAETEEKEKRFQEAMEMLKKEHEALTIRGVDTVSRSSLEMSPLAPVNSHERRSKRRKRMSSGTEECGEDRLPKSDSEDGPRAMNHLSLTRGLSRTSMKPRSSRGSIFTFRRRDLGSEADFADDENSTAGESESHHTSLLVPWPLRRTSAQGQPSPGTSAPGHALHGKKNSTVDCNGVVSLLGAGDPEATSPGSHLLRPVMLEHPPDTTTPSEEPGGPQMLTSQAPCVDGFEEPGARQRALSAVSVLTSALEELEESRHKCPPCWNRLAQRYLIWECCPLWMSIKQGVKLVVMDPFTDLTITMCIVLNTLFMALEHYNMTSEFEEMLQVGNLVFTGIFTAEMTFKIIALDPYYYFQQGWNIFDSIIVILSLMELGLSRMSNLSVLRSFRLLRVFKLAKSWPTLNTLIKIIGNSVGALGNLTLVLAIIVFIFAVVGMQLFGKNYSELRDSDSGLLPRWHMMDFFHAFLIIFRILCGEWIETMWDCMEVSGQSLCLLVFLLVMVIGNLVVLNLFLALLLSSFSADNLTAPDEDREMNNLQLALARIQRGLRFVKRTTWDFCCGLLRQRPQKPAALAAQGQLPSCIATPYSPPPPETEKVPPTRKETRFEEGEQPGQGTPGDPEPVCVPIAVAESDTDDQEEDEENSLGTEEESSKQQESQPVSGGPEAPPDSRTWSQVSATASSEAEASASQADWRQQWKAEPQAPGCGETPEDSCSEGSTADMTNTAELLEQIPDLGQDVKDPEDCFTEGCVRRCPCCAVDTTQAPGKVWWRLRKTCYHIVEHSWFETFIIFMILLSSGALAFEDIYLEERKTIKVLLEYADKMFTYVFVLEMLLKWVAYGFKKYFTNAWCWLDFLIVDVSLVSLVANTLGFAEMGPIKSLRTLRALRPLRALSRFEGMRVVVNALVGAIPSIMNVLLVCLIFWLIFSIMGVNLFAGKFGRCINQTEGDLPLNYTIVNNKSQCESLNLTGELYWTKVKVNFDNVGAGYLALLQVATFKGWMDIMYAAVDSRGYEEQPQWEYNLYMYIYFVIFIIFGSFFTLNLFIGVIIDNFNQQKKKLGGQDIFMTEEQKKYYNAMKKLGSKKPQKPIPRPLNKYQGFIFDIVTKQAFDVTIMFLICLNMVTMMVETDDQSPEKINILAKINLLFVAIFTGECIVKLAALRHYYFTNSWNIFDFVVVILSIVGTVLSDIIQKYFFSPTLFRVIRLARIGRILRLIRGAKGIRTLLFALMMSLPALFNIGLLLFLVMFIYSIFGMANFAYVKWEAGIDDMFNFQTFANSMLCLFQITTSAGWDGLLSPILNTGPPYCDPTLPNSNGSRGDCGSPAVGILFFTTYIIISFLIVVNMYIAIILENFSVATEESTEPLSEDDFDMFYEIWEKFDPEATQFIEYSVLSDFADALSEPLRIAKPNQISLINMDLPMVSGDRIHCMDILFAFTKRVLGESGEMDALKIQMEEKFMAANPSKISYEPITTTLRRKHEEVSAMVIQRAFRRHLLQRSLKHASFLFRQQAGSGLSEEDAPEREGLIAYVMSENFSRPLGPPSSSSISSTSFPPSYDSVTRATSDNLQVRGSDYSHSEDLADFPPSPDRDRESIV
The threshold is inclusive: k′ NaV1.5 of exactly 40 counts as label 1; values below receive label 0.

| MOLECULE | ASSIGNED CATEGORY |
| --- | --- |
| CCN1CCN(C(C)C(=O)Nc2c(C)csc2C(=O)OC)CC1 (centres unmarked) | label 0 |
| CCCNC(C)C(=O)Nc1c(C)csc1C(=O)OCC (centres unmarked) | label 0 |
| CCCNC(C)C(=O)Nc1c(C)csc1C(=O)OC (centres unmarked) [AT, reference compound] | label 1 |

Inquiry: Please check the record COC(=O)c1scc(C)c1NC(=O)C(C)N1CCN(c2ccccc2)CC1 (centres unmarked) and state if its k′ NaV1.5 is at or above 40.
Reply text: label 1

Inquiry: Please check the record CCCNC(C)C(=O)Nc1c(C)csc1C(=O)OCCC (centres unmarked) and state if its k′ NaV1.5 is at or above 40.
Reply text: label 0
